Target: IgE of patient serum 6
Assay: ELISA inhibition, serum 6 pre-incubated with 1.25 µg/ml inhibitor; competitor: wt Mal d 1 adsorbed on wells
property.label: % inhibition of Mal d 1-IgE binding (%)
Enter your answer as a number in %; do not include the unit.

wild-type Bet v 1-Mal d 1 hybrid molecule (SEQ ID NO: 3) (protein) HHHHHHGVFNYETETTSVIPAARLFKAFILDGDNLFPKVAPQAISSVENIEGNGGPGTIKKISFPEGFPFKYVKDRVDEVDHTNFKYNYSVIEGGPIGDTLEKISNEIKIVATPDGGSILKINNKYHTKGDHEVKAEQIKASKEMGETLLRAVESYLLAHSDAYNEFGVYTFENEFTSEIPPSRLFKAFVLDADNLIPKIAPQAIKQAEILEGDGGPGTIKKITFGEGSQYGYVKHKIDSVDEANYSYAYTLIEGDALTDTIEKVSYETKLVASGSGSIIKSISHYHTKGDVEIKEEHVKAGKEKAHGLFKLIESYLKGHPDAYN : 70.5

Lookup result for mixture of the two mutagenised allergens (mut Bet v 1-SEQ ID NO:6 and mut Mal d 1-SEQ ID NO:2) (protein) chain 1: HHHHHHGVFNYETETTSVIPAARLFKAFILDGDNLFPKVAPQAISSVENIEGNGGPGTIAKISFPEGFPFKYVKDRVDEVDHTNFKYNYSVIEGGPIGDTLEKISNEIKIVATPDGGSILAINNKYHTAGDHEVKAEQIKASKEMGETLLRAVESYLLAHSDAYN chain 2: HHHHHHGVYTFENEFTSEIPPSRLFKAFVLAADNLIPKIAPQAIKQAEILEGDGGPGTIKKITFGEGSQYGYVKHKIDSVDEAAYSYAYTLIEGDALTDTIEKVSYETKLVASGSGSIIKSISHYHTKGDVEIKEEHVKAGKEKAHGLFKLIESYLKGHPDAYN ; measured % inhibition of Mal d 1-IgE binding: 53.9

% inhibition of Mal d 1-IgE binding for mutant Bet v 1-Mal d 1 hybrid molecule (SEQ ID NO: 4) (protein) HHHHHHGVFNYETETTSVIPAARLFKAFILDGDNLFPKVAPQAISSVENIEGNGGPGTIAKISFPEGFPFKYVKDRVDEVDHTNFKYNYSVIEGGPIGDTLEKISNEIKIVATPDGGSILAINNKYHTAGDHEVKAEQIKASKEMGETLLRAVESYLLAHSDAYNEFGVYTFENEFTSEIPPSRLFKAFVLAADNLIPKIAPQAIKQAEILEGDGGPGTIKKITFGEGSQYGYVKHKIDSVDEAAYSYAYTLIEGDALTDTIEKVSYETKLVASGSGSIIKSISHYHTKGDVEIKEEHVKAGKEKAHGLFKLIESYLKGHPDAYN is 70.8

Documented % inhibition of Mal d 1-IgE binding of mixture of the single wt allergens (wt Bet v 1 and wt Mal d 1) (protein) chain 1: HHHHHHGVFNYETETTSVIPAARLFKAFILDGDNLFPKVAPQAISSVENIEGNGGPGTIKKISFPEGFPFKYVKDRVDEVDHTNFKYNYSVIEGGPIGDTLEKISNEIKIVATPDGGSILKINNKYHTKGDHEVKAEQIKASKEMGETLLRAVESYLLAHSDAYN chain 2: HHHHHHGVYTFENEFTSEIPPSRLFKAFVLDADNLIPKIAPQAIKQAEILEGDGGPGTIKKITFGEGSQYGYVKHKIDSVDEANYSYAYTLIEGDALTDTIEKVSYETKLVASGSGSIIKSISHYHTKGDVEIKEEHVKAGKEKAHGLFKLIESYLKGHPDAYN : 73.7

src = patent US20140294878A1
